Field: ED50. Provide a value for each of the compounds that follow.
Organism: Mus musculus
Assay: Effect on behavioral activity in mouse assessed as tail flick by tetrad test
Format: functional
Numbers only, in mg/kg.

As a guide, the following entries are already answered.
> print(dat)
                                   compound  test.readout  measurement
1  CCCCCCCc1cc(F)c2c(c1)OC(C)(C)[C@@H]1CC=C(C)C[C@@H]21          ED50         21.5
2  CCCCCC#Cc1cc(O)c2c(c1)OC(C)(C)[C@@H]1CC=C(C)C[C@@H]21          ED50         3.24
3  CCCCCc1cc(O)c2c(c1)OC(C)(C)[C@@H]1CCC(C)=C[C@@H]21 [DRONABINOL]          ED50          1.4

Task: Value lookup for ED50; key = CCCCC/C=C/c1cc(O)c2c(c1)OC(C)(C)[C@@H]1CC=C(C)C[C@@H]21
Output: 0.09

FYI, the data here is from ChEMBL document CHEMBL1147027.
